Reported microsomal CLint at 1 µM values for a set of molecules
procedure-details: Intrinsic clearance in CD1 rat liver microsomes at 1 uM after 30 mins
Assay type: ADME, Microsome
condition-description: read-out: CLH

Examples with their reported microsomal CLint at 1 µM follow.
molecule: CC(C)NC(=O)N1CCc2sccc2C1c1ccc(C(F)(F)F)cc1 (centres undefined)
result-type: microsomal CLint at 1 µM
obs-value: > 399 µL/min/mg
--
molecule: O=C(c1ccccc1F)N1CCc2sccc2C1c1ccc(C(F)(F)F)cc1 (centres undefined)
result-type: microsomal CLint at 1 µM
obs-value: > 399 µL/min/mg
--
molecule: O=C(c1cccc(F)c1)N1CCc2sccc2C1c1ccc(C(F)(F)F)cc1 (centres undefined)
result-type: microsomal CLint at 1 µM
obs-value: > 399 µL/min/mg
--
molecule: O=C(Nc1ccccc1)N1CCc2sccc2C1c1ccccc1Cl (centres undefined)
result-type: microsomal CLint at 1 µM
obs-value: > 399 µL/min/mg
--
molecule: O=C(N1CCOCC1)N1CCc2sccc2C1c1ccc(C(F)(F)F)cc1 (centres undefined)
result-type: microsomal CLint at 1 µM
obs-value: > 399 µL/min/mg
--
molecule: FC(F)(F)c1ccc(C2c3ccsc3CCN2Cc2ccccc2)cc1 (centres undefined)
result-type: microsomal CLint at 1 µM
obs-value: > 399 µL/min/mg

Inquiry: Find the measured microsomal CLint at 1 µM of O=C(Nc1ccccc1)N1CCc2sccc2C1c1cccc(F)c1 (centres undefined) and report it.
Reply text: > 399 µL/min/mg

Inquiry: Tell me microsomal CLint at 1 µM reported for O=C(Nc1ccccc1)N1CCc2sccc2C1c1ccccc1 (centres undefined)
Reply text: > 399 µL/min/mg

Inquiry: Report microsomal CLint at 1 µM, nothing else, for this molecule: O=C(Nc1ccccc1)N1CCc2sccc2C1c1ccccc1F (centres undefined)
Reply text: > 399 µL/min/mg

Inquiry: Please indicate microsomal CLint at 1 µM recorded for CC(C)C(=O)N1CCc2sccc2C1c1ccc(C(F)(F)F)cc1 (centres undefined)
Reply text: > 399 µL/min/mg

Inquiry: Please give measured microsomal CLint at 1 µM of the following entry: O=C(Nc1ccccc1)N1CCc2sccc2C1c1ccccc1C(F)(F)F (centres undefined)
Reply text: > 399 µL/min/mg

Inquiry: Complete the entry with microsomal CLint at 1 µM for O=C(Nc1ccccc1)N1CCc2sccc2C1
Reply text: 180 µL/min/mg

Inquiry: Give the reported value of microsomal CLint at 1 µM for this record: O=C(Nc1ccc(F)cc1)N1CCc2ccsc2C1c1ccc(C(F)(F)F)cc1 (centres undefined)
Reply text: 206 µL/min/mg

Inquiry: Specify reported microsomal CLint at 1 µM for the molecule shown: O=C(Nc1ccc(F)cc1)N1CCCc2ccccc2C1c1ccc(C(F)(F)F)cc1 (centres undefined)
Reply text: 146 µL/min/mg

Inquiry: Provide microsomal CLint at 1 µM value for the following molecule: O=C(Nc1ccc(F)cc1)N1CCCCC1c1ccc(C(F)(F)F)cc1 (centres undefined)
Reply text: 285 µL/min/mg

Inquiry: Fill in microsomal CLint at 1 µM for record CCCC1c2ccsc2CCN1C(=O)Nc1ccccc1 (centres undefined)
Reply text: > 399 µL/min/mg

Inquiry: Kindly indicate its recorded microsomal CLint at 1 µM. Item: O=C(Nc1ccc(Cl)cc1)N1CCc2sccc2C1c1ccc(C(F)(F)F)cc1 (centres undefined)
Reply text: 162 µL/min/mg

----------
procedure-details: Intrinsic clearance in CD1 rat liver microsomes at 1 uM after 30 mins
Format: ADME, Microsome
condition-description: read-out: CLH
Below, each entry is listed alongside its reported microsomal CLint at 1 µM.
Value expressed in µL/min/mg; do not type the unit.

Inquiry: Complete the entry with microsomal CLint at 1 µM for O=C(Nc1ccc(F)cc1)N1CCc2c(F)cccc2C1c1ccc(C(F)(F)F)cc1 (configuration not stated)
Reply text: 48

Inquiry: Write down microsomal CLint at 1 µM measured for item O=C(Nc1ccc(F)cc1)N1CCc2ccoc2C1c1ccc(C(F)(F)F)cc1 (configuration not stated)
Reply text: 164

Inquiry: Supply reported microsomal CLint at 1 µM belonging to this compound: O=C(Nc1cccc(F)c1)N1CCc2sccc2C1c1ccc(C(F)(F)F)cc1 (configuration not stated)
Reply text: 278
